# Tested on: ACHN renal
# Experimental Protocol: NCI tumour cell line growth inhibition, 48 h
Readout Kind: TGI

* O=[N+]([O-])c1ccc(Sc2c3ccccc3nc3ccccc23)nc1 | 20.5 µM
* CN1CCC23c4c5ccc(O)c4OC2c2[nH]c4ccccc4c2CC3(O)C1C5 (stereo not drawn) | 65.1 µM
* CCOC(=O)Nc1ccc(-c2nc(-c3cccc(OC)c3)c(-c3ccnc(Br)c3)[nH]2)cc1 | > 100 µM
* COc1cc(-c2cc(=O)c3cc(C)c(C)c(C(=O)O)c3o2)cc(OC)c1OC | > 100 µM
* COc1cc(/C=C2/C(=O)N(C(=O)c3ccc(Cl)cc3)N=C2C)cc(OC)c1OC | > 100 µM
* Cc1ccc(S(=O)(=O)N2CCCC2C(=O)O[C@H]2CC[C@H]3CC=C[C@H]32)cc1 (stereo partly drawn) | > 31.6 µM
* CC(=O)OC1CC2C(C)(C)C(=O)C=CC2(C)C2CCC3(C)C(c4ccoc4)OC(=O)C4OC43C12C (stereo not drawn) | > 100 µM
* O=C(c1ccccc1)c1sc2c(=O)c(C(=O)c3ccccc3)c(C(=O)c3ccccc3)sc2c(=O)c1C(=O)c1ccccc1 | > 100 µM
* O=C(NO)C(=O)Nc1ccc(Cl)cc1[N+](=O)[O-] | > 100 µM
* Cc1nc(N)sc1C(=O)Nc1cc(C(=O)NCCCN(C)C)n(C)c1 | > 100 µM
* OC(c1ccccn1)C1CNc2ccccc21 (stereo not drawn) | > 100 µM
* COC(=O)[C@@H]1C[C@@H]2c3ccccc3N(S(=O)(=O)c3ccccc3)[C@@H]2N1C(=O)OC | > 100 µM
* O=C([O-])c1ccc(C(=O)[O-])cc1.O=C([O-])c1ccc(C(=O)[O-])cc1.[Mo+2].[Mo+2] | > 100 µM
* O=C(NC(Nc1ccc(F)c(Cl)c1)(C(F)(F)F)C(F)(F)F)OCc1ccccc1 | > 100 µM
* CCCCC(=O)Oc1ccc2c(C)cc(=O)oc2c1 | > 100 µM
* O=C1C2c3[nH]c4ccccc4c3[C@@H]3CCCCC3C2C(=O)N1c1ccccc1 (stereo partly drawn) | 81.9 µM
* COc1cccc(CC2Cc3ccccc3CC(=O)N2)c1 (stereo not drawn) | > 100 µM
* COc1ccc(C(=O)c2cc3c(N)c(C(=O)Nc4cccc(Cl)c4C)sc3nc2C)cc1 | > 25 µM
